- target entity: human glucagon receptor (human) (UniProt P47871)
- Sequence (P47871 26-477): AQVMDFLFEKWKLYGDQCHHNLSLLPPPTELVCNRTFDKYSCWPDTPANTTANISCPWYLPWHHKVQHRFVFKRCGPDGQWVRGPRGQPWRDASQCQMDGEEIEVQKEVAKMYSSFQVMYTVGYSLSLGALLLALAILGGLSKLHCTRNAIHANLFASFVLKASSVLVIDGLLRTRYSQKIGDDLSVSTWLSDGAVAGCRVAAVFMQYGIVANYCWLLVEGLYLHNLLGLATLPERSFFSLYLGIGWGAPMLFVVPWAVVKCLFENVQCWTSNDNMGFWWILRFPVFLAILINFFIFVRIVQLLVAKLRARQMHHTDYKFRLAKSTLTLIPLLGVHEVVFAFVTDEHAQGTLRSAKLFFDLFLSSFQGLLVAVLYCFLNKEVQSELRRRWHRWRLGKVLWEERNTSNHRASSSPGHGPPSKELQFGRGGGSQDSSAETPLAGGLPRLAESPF
- procedure text: cell-based or functional assay
quantity: Relative cAMP EC50 (nM)
Please reply with the bare figure in nM and do not write the unit itself.

Query: Reported Relative cAMP EC50, binder YXQGTFTSDXSKXLDKKAQXAFIEYLIAXGESSGAPPPSGS (synthetic construct; SITE 2: note = 2-Aminoisobutyric Acid; SITE 10: note = 3-(4-Pyridyl)-L-alanine; SITE 13: note = alpha-methyl-leucine; SITE 17: note = Lysine is chemically modified through conjugation of the epsilon-amino group of the Lysine side chain with (2-[2-(2-Amino-ethoxy)-ethoxy]-acetyl)) [Example 285] : ____
Response: 2.32

Query: Reported Relative cAMP EC50, binder YXQGTXTSDYSILLDKKAQXAFIEYLLEGGPSSGAPPPS (not fully specified; synthetic construct; SITE 2: note = 2-Aminoisobutyric Acid; SITE 6: note = alpha-methyl-2-fluoro-L-phenylalanine; SITE 17: note = Lysine is chemically modified through conjugation of the epsilon-amino group of the Lysine side chain with (2-[2-(2-Amino-ethoxy)-ethoxy]-acetyl)2-(gamma-Glu)-CO-(CH2 )18) [Example 385] : ____
Response: 1

Query: Reported Relative cAMP EC50, binder YXQGTFTSDXSQXLDXKAQXAFIEXLIEXGPSSGEPPPSGSEE (non-natural residues, C18 diacid-(γGlu)2 acyl on K, C-terminal amide; synthetic construct; SITE 2: note = 2-Aminoisobutyric Acid; SITE 10: note = 3-(4-Pyridyl)-L-alanine; SITE 13: note = alpha-methyl-leucine; SITE 16: note = L-ornithine; SITE 17: note = Lysine is chemically modified through conjugation of the epsilon-amino group of the Lysine side chain with (gamma-Gl)) [Example 1093] : ____
Response: 7.72

Query: Reported Relative cAMP EC50, binder YXQGTFTSDFSXXLDKKAQXAFIEYLLAGGPSSGEPPPSGS (synthetic construct; SITE 2: note = 2-Aminoisobutyric Acid; SITE 12: note = L-ornithine; SITE 13: note = alpha-methyl-leucine; SITE 17: note = Lysine is chemically modified through conjugation of the epsilon-amino group of the Lysine side chain with (2-[2-(2-Amino-ethoxy)-ethoxy]-acetyl)-(gamma-Glu)) [Example 94] : ____
Response: 8.16

Query: Reported Relative cAMP EC50, binder YXQGTXTSDXXIXLDXKAQXXFIEYLIEGGPSSGEPPPSGTGE (synthetic construct; SITE 2: note = 2-Aminoisobutyric Acid; SITE 6: note = alpha-methyl-2-fluoro-L-phenylalanine; SITE 10: note = 3-(4-Pyridyl)-L-alanine; SITE 11: note = alpha-methyl-L-serine; SITE 13: note = alpha-methyl-leucine; SITE 16: note = L-ornithine; SITE 17: note = Lysine is chemically mo) [Example 523] : ____
Response: 3.79

Query: Reported Relative cAMP EC50, binder YXQGTFTSDFSXXLDKKAQXAFIEYLLAGGPSSGAPPPEGE (synthetic construct; SITE 2: note = 2-Aminoisobutyric Acid; SITE 12: note = L-ornithine; SITE 13: note = alpha-methyl-leucine; SITE 17: note = Lysine is chemically modified through conjugation of the epsilon-amino group of the Lysine side chain with (2-[2-(2-Amino-ethoxy)-ethoxy]-acetyl)-(gamma-Glu)) [Example 99] : ____
Response: 6.09
